Ref: patent US8163909B2

Would you mind telling me the reported HLM of each entry?
# experimentDescription: Microsomal stability assay, human liver microsomes;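 also: pooled human liver microsomes at 0.25 mg/mL with 1 µM compound and NADPH at 37 °C, pH 7.4, for 30 min, unchanged parent quantified by LC-MS/MS against the 0 min sample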
# measurementParameters: human liver microsomes
Expressed in µL/min/mg, but write only the number.

Req: State its HLM for this molecule: CO[C@H](C)C(=O)N[C@@H](Cc1ccc(F)c(-c2nccs2)c1)[C@H](O)CN[C@H]1CC2(CCC2)Oc2ncc(CC(C)(C)C)cc21
Resp: 40

Req: Answer with the recorded HLM of COCC(=O)N[C@@H](Cc1ccc2c(c1)OCO2)[C@H](O)CN[C@H]1CC2(CCC2)Oc2c1cc(CC(C)C)nc2-c1ccncc1 only.
Resp: 45

Req: Note down HLM recorded for COCC(=O)N[C@@H](Cc1cccc(F)c1)[C@H](O)CN[C@H]1CC2(CCC2)Oc2c1cc(CC(C)(C)F)cc2-n1ccnc1
Resp: 25

###

Exercise: for every item that follows, state its recorded IC50.
# tgt: Beta Secretase enzyme (BACE) (Homo sapiens, UniProt P56817)
# Sequence (P56817 46-501): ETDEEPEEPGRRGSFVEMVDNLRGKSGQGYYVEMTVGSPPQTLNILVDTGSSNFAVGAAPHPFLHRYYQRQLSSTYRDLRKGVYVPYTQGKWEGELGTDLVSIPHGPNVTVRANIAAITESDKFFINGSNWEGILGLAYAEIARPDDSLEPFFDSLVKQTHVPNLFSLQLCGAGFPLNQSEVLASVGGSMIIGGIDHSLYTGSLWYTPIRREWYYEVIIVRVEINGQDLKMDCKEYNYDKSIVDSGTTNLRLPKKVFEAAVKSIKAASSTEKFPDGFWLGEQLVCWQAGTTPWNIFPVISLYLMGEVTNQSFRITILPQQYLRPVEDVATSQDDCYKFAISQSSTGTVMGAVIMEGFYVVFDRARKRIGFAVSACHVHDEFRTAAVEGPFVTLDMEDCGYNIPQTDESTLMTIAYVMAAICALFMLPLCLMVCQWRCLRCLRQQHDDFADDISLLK
# experimentDescription: In vitro enzymatic BACE FRET (fluorescence resonance energy transfer) assay;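 also: fluorescence read after 1 h with 50 nM quenched peptide substrate spanning the BACE cleavage site, in pH 4.2 acetate buffer containing 10% DMSO and nonionic detergent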
# Format: biochemical
# measurementParameters: BACE enzyme assay; read-out: BACE1 FRET assay (IC50)

Req: Give recorded IC50. COCC(=O)N[C@@H](Cc1ccccc1)[C@H](O)CN[C@H]1CC2(CCC2)Oc2c1cc(CC(C)(C)C)nc2N(C)C
Resp: 0.0265 µM

Req: Let me know recorded IC50 for COCC(=O)N[C@@H](Cc1cccc(F)c1)[C@H](O)CN[C@H]1CC2(CCC2)Oc2c1cc(CC(C)(C)C)nc2NCC(F)(F)F , thanks.
Resp: 0.0195 µM

Req: Supply IC50 value. Item: CC(=O)N[C@@H](Cc1ccc2c(c1)OCO2)[C@H](O)CN[C@H]1CC2(CCC2)Cc2ncc(CC(C)(C)C)cc21
Resp: 0.125 µM

Req: Give a short answer stating reported IC50 for CC(=O)N[C@@H](Cc1ccc(F)c(F)c1)[C@H](O)CN[C@H]1CC2(CCC2)Oc2ncc([C@H](F)C(C)(C)C)cc21 .
Resp: 0.00217 µM

Req: Look up and report measured IC50 for this entry: CO[C@H](C)C(=O)N[C@@H](Cc1ccc(F)c(Cl)c1)[C@H](O)CN[C@H]1CC2(CCC2)Oc2ncc(CC(C)(C)F)cc21
Resp: 0.0291 µM

Req: Give the reported value of IC50 for this record: COCC(=O)N[C@@H](Cc1ccc(F)c(OC)c1)[C@H](O)CN[C@H]1CC2(CCC2)Oc2ncc(CC(C)(C)C)cc21
Resp: 0.00637 µM

Req: // fetch IC50 given entry COCC(=O)N[C@@H](Cc1cc(F)cc(F)c1)[C@H](O)CN[C@H]1CC2(CCCC2)C(=O)c2ccc(CC(C)(C)C)cc21
Resp: 0.00495 µM

Req: Provide one value: measured IC50 of CC(C)(C)Cc1cnc2c(c1)[C@@H](NC[C@@H](O)[C@H](Cc1cccc(C#N)c1)NC(=O)[C@H](O)C(F)(F)F)CC1(CCC1)O2
Resp: 0.00323 µM

Req: Report measured IC50; entry is COCC(=O)N[C@@H](Cc1cccc(F)c1)[C@H](O)CN[C@H]1CC2(CCC2)Oc2ncc(CC(C)(C)C(F)(F)F)cc21
Resp: 0.016 µM

Req: Indicate its recorded IC50; the compound in question is CC(=O)N[C@@H](Cc1cc(F)cc(F)c1)[C@H](O)CN[C@H]1CC2(CCCC2)C(=O)c2ccc(CC(C)(C)C)cc21
Resp: 0.0103 µM
